- experimentNotes: Quantitative High-Throughput drug screen in 47 multiple myeloma cell lines against the NCATS MIPE library collection: OCIMY7_PLB cell viability assay (AID 1918987); note: nearly all actives have a fitted effect of over 65% in size
- testContext: OCI-MY7 myeloma viability, CellTiter-Glo ATP, 48 h
- Description: PI: Beverly A. Mock Ph.D. Laboratory of Cancer Biology and Genetics, Center for Cancer Research, National Cancer Institute, National Institute of Health, Bethesda, Maryland […] 5; Detector; 425V; Luminescence; Viewlux PerkinElmer. […] 1. […] Briefly, the corresponding myeloma cell lines were screened in 1,536-well plates with 500 cells, 5-uL per well for inhibition of cell viability (assessed by measuring ATP levels with CellTiterGlo). […]
Inconclusive results are not listed. The source made the active and inactive calls. Calls come from the whole dose curve; as a rule, active = well fitted cell-killing curve with a large enough effect; inconclusive = small, poorly fitted or top-dose-only effect, or effect the other way; inactive = no such curve, though single readings can be large or run the other way.
Can you answer with just one of these options? TRUE for active, FALSE for inactive

>>> discretelabel("CON(C)C(=O)N1N=C(c2cc(F)ccc2F)S[C@]1(CCCN)c1ccccc1")
"FALSE"
>>> discretelabel("CC[C@H](NC(=O)[C@H](C)NC)C(=O)N1C[C@@H](O)C[C@H]1Cc1c(-c2[nH]c3cc(F)ccc3c2C[C@H]2C[C@H](O)CN2C(=O)[C@H](CC)NC(=O)[C@H](C)NC)[nH]c2cc(F)ccc12")
"TRUE"
>>> discretelabel("Clc1ccc(C2(c3ccc(-c4cn[nH]c4)cc3)CCNCC2)cc1")
"TRUE"

Prompt line: Hi, sorry to bother you, what did the test record for CNC(=O)[C@H](Cc1ccccc1)NC(=O)[C@H](CC(C)C)[C@H](CSc1cccs1)C(=O)NO ?
Response line: TRUE

Prompt line: Hi, sorry to bother you, what did the test record for NS(=O)(=O)c1cc(Cl)c(Cl)c(S(N)(=O)=O)c1 ?
Response line: FALSE

Prompt line: Hi, sorry to bother you, what did the test record for O=C(Nc1ccc(OC(F)(F)F)cc1)c1sccc1NCc1ccnc2ccccc12 ?
Response line: TRUE

Prompt line: Hi, sorry to bother you, what did the test record for Cc1cccc(-c2[nH]c(C(C)(C)C)nc2-c2ccc3c(c2)OCO3)n1 ?
Response line: TRUE

Prompt line: Hi, sorry to bother you, what did the test record for Cc1nc(NC(=O)N2CCC[C@@H]2C(N)=O)sc1-c1csc(C(C)(C)C)n1 ?
Response line: TRUE
